subject.of.test: T1, human galectin-10-His (recombinant human galectin-10 with TEV-cleavable N-terminal His-tag) (human)
T1 construct: SEC-MALLS: dimer in solution; also called Gal10-His; humanGal10-His
T1 chain: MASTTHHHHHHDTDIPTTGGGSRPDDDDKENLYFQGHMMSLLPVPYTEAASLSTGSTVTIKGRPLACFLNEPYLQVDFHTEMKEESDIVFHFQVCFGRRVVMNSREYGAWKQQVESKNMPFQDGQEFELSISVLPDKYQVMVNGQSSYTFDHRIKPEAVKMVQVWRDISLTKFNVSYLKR
experiment.summary: BLI tandem on galectin-10-His; isotype control as saturating antibody (10 ug/mL)
Form field: binding signal (nm) (one value per entry).
reported.endpoint: binding signal (nm)

binder="6F06 mouse IgG1 (antibody, V domains shown, also called 6F06 mIgG1) VH: QVQLVESGGGLVQPGGSLRLSCAASEFTFSRYSMSWVRQAPGKGLEWVSTINSGGGSTSYVDSVKGRFTISRDNAKNTLYLQMNSLKPEDTAVYYCTKSQGGISFSTQYGMDYWGKGTLVTVSS VL: NFMLTQPSAVSVSLGQTARITCQGGNFGRYYANWYQQKPGQAPVLVIYKDSERPSGIPERFSGSSSGDTATLTISGAQAEDESDYYCQSGSVSDNAVFGGGTHLAVL" reported_endpoint="binding signal (nm)" experimental_value=1.15
binder="6A05 mouse IgG1 (antibody, V domains shown, also called 6A05 mIgG1) VH: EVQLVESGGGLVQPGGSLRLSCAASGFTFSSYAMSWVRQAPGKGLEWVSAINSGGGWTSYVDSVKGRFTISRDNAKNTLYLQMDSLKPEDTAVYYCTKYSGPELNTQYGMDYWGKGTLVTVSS VL: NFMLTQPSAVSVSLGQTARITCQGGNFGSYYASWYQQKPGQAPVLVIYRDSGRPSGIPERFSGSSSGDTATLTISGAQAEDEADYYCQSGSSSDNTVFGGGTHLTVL" reported_endpoint="binding signal (nm)" experimental_value=1.02
binder="1D11 mouse IgG1 (antibody, V domains shown, VH on mouse IgG1 heavy chain constant domains (CH1-CH2-CH3), VL on mouse lambda light chain constant domain; also called 1D011; 1D11 mIgG1) VH: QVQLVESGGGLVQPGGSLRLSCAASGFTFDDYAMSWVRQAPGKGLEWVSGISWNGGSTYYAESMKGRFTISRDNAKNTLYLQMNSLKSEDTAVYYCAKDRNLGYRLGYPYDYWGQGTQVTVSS VL: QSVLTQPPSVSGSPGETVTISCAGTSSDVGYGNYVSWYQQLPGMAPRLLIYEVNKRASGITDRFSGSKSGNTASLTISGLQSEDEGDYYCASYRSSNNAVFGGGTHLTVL" reported_endpoint="binding signal (nm)" experimental_value=1.18
binder="2C07 mouse IgG1 (antibody, V domains shown, VH on mouse IgG1 heavy chain constant domains (CH1-CH2-CH3), VL on mouse lambda light chain constant domain; also called 2C07 mIgG1) VH: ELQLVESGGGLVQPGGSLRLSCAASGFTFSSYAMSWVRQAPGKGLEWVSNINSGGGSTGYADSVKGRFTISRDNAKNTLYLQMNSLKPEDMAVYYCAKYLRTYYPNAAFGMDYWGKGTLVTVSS VL: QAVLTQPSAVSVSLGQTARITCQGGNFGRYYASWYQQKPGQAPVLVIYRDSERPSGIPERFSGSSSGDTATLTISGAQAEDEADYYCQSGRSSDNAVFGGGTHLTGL" reported_endpoint="binding signal (nm)" experimental_value=0.73
binder="6A08 mouse IgG1 (antibody, V domains shown, also called 6A08 mIgG1) VH: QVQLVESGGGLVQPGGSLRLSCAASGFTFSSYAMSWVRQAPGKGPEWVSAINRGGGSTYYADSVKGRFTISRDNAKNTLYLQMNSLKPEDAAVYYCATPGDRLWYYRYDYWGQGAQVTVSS VL: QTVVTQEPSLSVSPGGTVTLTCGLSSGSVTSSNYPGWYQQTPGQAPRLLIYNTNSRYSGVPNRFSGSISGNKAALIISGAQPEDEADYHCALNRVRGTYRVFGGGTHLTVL" reported_endpoint="binding signal (nm)" experimental_value=1.04
binder="4E08 mouse IgG1 (antibody, V domains shown, VH on mouse IgG1 heavy chain constant domains (CH1-CH2-CH3), VL on mouse lambda light chain constant domain; also called 4E8; 4E08 mIgG1) VH: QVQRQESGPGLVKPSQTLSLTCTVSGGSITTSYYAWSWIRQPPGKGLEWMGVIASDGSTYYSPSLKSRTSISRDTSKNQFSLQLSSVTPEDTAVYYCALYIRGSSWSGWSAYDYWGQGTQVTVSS VL: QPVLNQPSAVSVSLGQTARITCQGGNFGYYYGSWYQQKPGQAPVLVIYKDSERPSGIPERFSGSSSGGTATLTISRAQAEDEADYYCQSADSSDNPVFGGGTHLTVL" reported_endpoint="binding signal (nm)" experimental_value=0.97
binder="2F09 mouse IgG1 (antibody, V domains shown, VH on mouse IgG1 heavy chain constant domains (CH1-CH2-CH3), VL on mouse lambda light chain constant domain; also called 2F09 mIgG1) VH: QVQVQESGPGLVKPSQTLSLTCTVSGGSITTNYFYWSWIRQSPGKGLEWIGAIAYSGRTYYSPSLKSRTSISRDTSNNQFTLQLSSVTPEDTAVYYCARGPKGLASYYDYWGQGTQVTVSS VL: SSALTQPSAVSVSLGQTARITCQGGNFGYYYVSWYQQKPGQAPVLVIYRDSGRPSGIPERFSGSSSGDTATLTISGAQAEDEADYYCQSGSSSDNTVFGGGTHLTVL" reported_endpoint="binding signal (nm)" experimental_value=1.14
binder="1C09 mouse IgG1 (antibody, V domains shown, VH on mouse IgG1 heavy chain constant domains (CH1-CH2-CH3), VL on mouse lambda light chain constant domain; also called 1C09 mIgG1) VH: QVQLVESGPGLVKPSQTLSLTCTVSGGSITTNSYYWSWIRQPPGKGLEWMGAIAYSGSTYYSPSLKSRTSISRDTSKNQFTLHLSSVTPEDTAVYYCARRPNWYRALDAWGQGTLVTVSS VL: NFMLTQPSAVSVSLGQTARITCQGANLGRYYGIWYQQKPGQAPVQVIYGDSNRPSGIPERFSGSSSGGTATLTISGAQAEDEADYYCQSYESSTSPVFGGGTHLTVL" reported_endpoint="binding signal (nm)" experimental_value=1.21
binder="6B06 mouse IgG1 (antibody, V domains shown, also called 6B06 mIgG1) VH: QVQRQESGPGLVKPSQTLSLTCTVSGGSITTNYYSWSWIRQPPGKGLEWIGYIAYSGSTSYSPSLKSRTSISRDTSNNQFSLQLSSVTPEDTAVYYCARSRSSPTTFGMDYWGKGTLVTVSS VL: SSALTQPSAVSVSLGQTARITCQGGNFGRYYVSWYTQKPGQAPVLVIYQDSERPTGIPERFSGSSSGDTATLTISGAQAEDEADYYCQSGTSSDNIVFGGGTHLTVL" reported_endpoint="binding signal (nm)" experimental_value=0.94
binder="6E10 mouse IgG1 (antibody, V domains shown, also called 6E010; 6E10 mIgG1) VH: QLQLVESGGGLVQPGGSLRLSCAASGFTFSSYWMYWVRQAPGKGLEWVSAINTGGGSTYYADSVKGRFTISRDNAKNTLYLQMNSLKPEDTALYYCARAGSGVAGTGYDYWGQGTQVTVSS VL: QPVLNQPSAVSVSLGQTARITCQGGNFGYYYVSWYQQKPGQAPVLVIYRDSGRPSGIPERFSGSSSGDTATLTISGAQAEDEADYYCQSGSSSDNAVFGGGTHLTVL" reported_endpoint="binding signal (nm)" experimental_value=1.34
